System: A549 (human lung carcinoma) cells
Assay: MTT cytotoxicity assay, A549
Format: cell-based
Details: 48 h, read-out: IC50 (µM) ± SD A549
We label by threshold. Values of IC50 strictly beneath 60 µM are met. Values of 60 µM and up are not met.

Task item: In plain terms, does CCOC(=O)COc1nc(-c2ccc3ccccc3c2)cc(-c2cccs2)c1C#N [compound 13] come in under 60 µM for IC50?
Reply: met

Task item: Follow-up entry: COc1nc(-c2ccc3ccccc3c2)cc(-c2cccs2)c1C#N [compound 5]
Reply: met

Task item: Follow-up entry: N#Cc1c(-c2cccs2)cc(-c2ccc3ccccc3c2)nc1Cl [compound 4]
Reply: not met

Task item: Follow-up entry: N#Cc1c(-c2cccs2)cc(-c2ccc3ccccc3c2)nc1OC1=NC(=S)NC1 [compound 3]
Reply: met

Task item: Follow-up entry: N#Cc1c(-c2cccs2)cc(-c2ccc3ccccc3c2)nc1OC(=O)CCl [compound 2]
Reply: not met

Task item: Follow-up entry: CCOC(=O)c1oc2nc(-c3ccc4ccccc4c3)cc(-c3cccs3)c2c1N [compound 14]
Reply: met

Task item: Follow-up entry: Nc1n[nH]c2nc(-c3ccc4ccccc4c3)cc(-c3cccs3)c12 [compound 8]
Reply: met

Task item: Follow-up entry: N#Cc1c(-c2cccs2)cc(-c2ccc3ccccc3c2)[nH]c1=S [compound 7]
Reply: met

Task item: Follow-up entry: N#Cc1c(-c2cccs2)cc(-c2ccc3ccccc3c2)nc1SC(=O)CCl [compound 11]
Reply: met
